This collection of values is drawn from ChEMBL document CHEMBL2021850.

IC50 values for the compounds below.
# TARGET UNDER TEST: Glucocorticoid receptor (Homo sapiens)
# Sequence (P04150 whole entry): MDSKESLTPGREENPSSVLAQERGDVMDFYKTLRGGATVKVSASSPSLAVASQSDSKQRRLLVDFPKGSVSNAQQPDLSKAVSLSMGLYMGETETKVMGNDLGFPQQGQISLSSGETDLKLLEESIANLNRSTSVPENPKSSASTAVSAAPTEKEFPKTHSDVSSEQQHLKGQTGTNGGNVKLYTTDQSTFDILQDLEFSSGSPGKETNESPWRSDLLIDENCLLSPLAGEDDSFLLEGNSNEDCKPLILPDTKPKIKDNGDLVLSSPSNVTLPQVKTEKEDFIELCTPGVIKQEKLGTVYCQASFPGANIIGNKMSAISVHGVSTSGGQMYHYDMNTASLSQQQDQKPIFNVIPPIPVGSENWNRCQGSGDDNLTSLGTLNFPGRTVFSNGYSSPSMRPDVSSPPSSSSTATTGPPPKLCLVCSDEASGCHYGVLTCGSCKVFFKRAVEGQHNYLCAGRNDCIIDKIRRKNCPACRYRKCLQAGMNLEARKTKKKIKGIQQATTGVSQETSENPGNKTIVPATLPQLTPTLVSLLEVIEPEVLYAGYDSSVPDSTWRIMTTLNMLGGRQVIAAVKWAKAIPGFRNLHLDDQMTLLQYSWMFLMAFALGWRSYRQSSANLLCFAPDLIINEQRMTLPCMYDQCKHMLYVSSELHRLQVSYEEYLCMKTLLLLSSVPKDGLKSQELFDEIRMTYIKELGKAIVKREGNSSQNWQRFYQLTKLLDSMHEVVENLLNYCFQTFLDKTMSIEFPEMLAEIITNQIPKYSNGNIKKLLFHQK
# ASSAY SUMMARY: Transactivation activity at glucocorticoid receptor in human HepG2 cells assessed as induction of tyrosine aminotransferase
# Type: ADME, cell-based
Write the number in nM without appending the unit.

Consider the worked cases shown below.
>>> recorded_value("Cc1nc(SCC(=O)[C@@]2(O)CC[C@H]3[C@@H]4CCC5=Cc6c(cnn6C6CCCCC6)C[C@]5(C)[C@H]4[C@@H](O)C[C@@]32C)sc1C")
168
>>> recorded_value("Cn1c(SCC(=O)[C@@]2(O)CC[C@H]3[C@@H]4CCC5=Cc6c(cnn6-c6ccc(F)cc6)C[C@]5(C)[C@H]4[C@@H](O)C[C@@]32C)nc2ccccc21")
88.7
>>> recorded_value("C[C@]12Cc3cnn(-c4ccccc4)c3C=C1CC[C@@H]1[C@@H]2[C@@H](O)C[C@@]2(C)[C@H]1CC[C@]2(O)C(=O)CSc1nc2ncccc2o1")
37.7
>>> recorded_value("C[C@]12Cc3cnn(C4CCCCC4)c3C=C1CC[C@@H]1[C@@H]2[C@@H](O)C[C@@]2(C)[C@H]1CC[C@]2(O)C(=O)CSc1nc2ccccc2o1")
82.1
>>> recorded_value("C[C@]12Cc3cnn(-c4ccc(F)cc4)c3C=C1CC[C@@H]1[C@@H]2[C@@H](O)C[C@@]2(C)[C@H]1CC[C@]2(O)C(=O)CSc1ccccn1")
4.7
>>> recorded_value("C[C@]12Cc3cnn(-c4ccc(F)cc4)c3C=C1CC[C@@H]1[C@@H]2[C@@H](O)C[C@@]2(C)[C@H]1CC[C@]2(O)C(=O)COc1cnc2ccccc2n1")
98.7

In: Give the measured IC50 of C=CCn1c(SCC(=O)[C@@]2(O)CC[C@H]3[C@@H]4CCC5=Cc6c(cnn6-c6ccccc6)C[C@]5(C)[C@H]4[C@@H](O)C[C@@]32C)nc2ccccc21 .
Out: 278

In: Give the measured IC50 of C[C@]12Cc3cnn(-c4ccc(F)cc4)c3C=C1CC[C@@H]1[C@@H]2[C@@H](O)C[C@@]2(C)[C@H]1CC[C@]2(O)C(=O)CSc1ccc2ccccc2n1 .
Out: 18.3

In: Give the measured IC50 of C[C@]12Cc3cnn(-c4ccc(F)cc4)c3C=C1CC[C@@H]1[C@@H]2[C@@H](O)C[C@@]2(C)[C@H]1CC[C@]2(O)C(=O)CSc1nc2ncccc2o1 .
Out: 38.6

In: Give the measured IC50 of C[C@]12Cc3cnn(C4CCCCC4)c3C=C1CC[C@@H]1[C@@H]2[C@@H](O)C[C@@]2(C)[C@H]1CC[C@]2(O)C(=O)CSc1nc2ccccc2s1 .
Out: 400

In: Give the measured IC50 of C[C@]12Cc3cnn(-c4ccccc4)c3C=C1CC[C@@H]1[C@@H]2[C@@H](O)C[C@@]2(C)[C@H]1CC[C@]2(O)C(=O)CSc1cnc2ccccc2n1 .
Out: 226

###

IC50 values for the compounds below.
# TARGET UNDER TEST: Glucocorticoid receptor (Homo sapiens)
# ASSAY SUMMARY: Transrepression activity at glucocorticoid receptor in human H292 cells assessed as inhibition of TNF-induced IL8 production
# Format: cell-based
Write the number in nM without appending the unit.

Consider the worked cases shown below.
>>> recorded_value("COc1ccc(-n2ncc3c2C=C2CC[C@@H]4[C@H]([C@@H](O)C[C@@]5(C)[C@H]4CC[C@]5(O)C(=O)CSc4nc5ccccc5s4)[C@@]2(C)C3)cc1")
107
>>> recorded_value("C[C@]12CCC(=O)C=C1CC[C@@H]1[C@@H]2[C@@H](O)C[C@@]2(C)[C@H]1CC[C@]2(O)C(=O)CSc1ccc2ccccc2n1")
89.3

Here is another compound to look at.
In: Hi! What's the reported IC50 for C[C@]12Cc3cnn(-c4ccc(F)cc4)c3C=C1CC[C@@H]1[C@@H]2[C@@H](O)C[C@@]2(C)[C@H]1CC[C@]2(O)C(=O)CSc1nc2ncccc2o1 on Glucocorticoid receptor (Homo sapiens)?
Out: 0.32

###

# TARGET UNDER TEST: Glucocorticoid receptor (Homo sapiens)
# ASSAY SUMMARY: Transactivation activity at human glucocorticoid receptor in cells co-expressing GRE by luciferase reporter gene assay relative to control
# CONDITION DESCRIPTION: read-out: Efficacy
REPORTED PROPERTY: Emax (%)
Write the number in % without appending the unit.

Consider the worked cases shown below.
>>> recorded_value("Cn1c(SCC(=O)[C@@]2(O)CC[C@H]3[C@@H]4CCC5=Cc6c(cnn6C6CCCCC6)C[C@]5(C)[C@H]4[C@@H](O)C[C@@]32C)nc2ccccc21")
75
>>> recorded_value("C[C@]12CCC(=O)C=C1CC[C@@H]1[C@@H]2[C@@H](O)C[C@@]2(C)[C@H]1CC[C@]2(O)C(=O)CSc1ccccn1")
14
>>> recorded_value("C[C@]12Cc3cnn(-c4ccccc4)c3C=C1CC[C@@H]1[C@@H]2[C@@H](O)C[C@@]2(C)[C@H]1CC[C@]2(O)C(=O)CSc1nc2ccccc2s1")
89
>>> recorded_value("C[C@]12CCC(=O)C=C1CC[C@@H]1[C@@H]2[C@@H](O)C[C@@]2(C)[C@H]1CC[C@]2(O)C(=O)CSc1cnc2ccccc2n1")
1
>>> recorded_value("C[C@]12Cc3cnn(-c4ccccc4)c3C=C1CC[C@@H]1[C@@H]2[C@@H](O)C[C@@]2(C)[C@H]1CC[C@]2(O)C(=O)COc1cnc2ccccc2n1")
56

Here is another molecule to look at.
In: Give the measured Emax of C[C@]12Cc3cnn(-c4ccccc4)c3C=C1CC[C@@H]1[C@@H]2[C@@H](O)C[C@@]2(C)[C@H]1CC[C@]2(O)C(=O)CSc1ccccn1 .
Out: 102

###

# TARGET UNDER TEST: Glucocorticoid receptor (Homo sapiens)
# ASSAY SUMMARY: Transactivation activity at human glucocorticoid receptor in cells co-expressing GRE by luciferase reporter gene assay relative to control
# CONDITION DESCRIPTION: read-out: Efficacy
Emax values for the compounds below.

>>> recorded_value("C[C@]12CCC(=O)C=C1CC[C@@H]1[C@@H]2[C@@H](O)C[C@@]2(C)[C@H]1CC[C@]2(O)C(=O)CSc1nc2ccccc2s1")
"30%"

In: Give the measured Emax of C[C@]12CCC(=O)C=C1CC[C@@H]1[C@@H]2[C@@H](O)C[C@@]2(C)[C@H]1CC[C@]2(O)C(=O)CSc1nc2ccccc2o1 .
Out: 35%

In: Give the measured Emax of Cc1nc(SCC(=O)[C@@]2(O)CC[C@H]3[C@@H]4CCC5=Cc6c(cnn6C6CCCCC6)C[C@]5(C)[C@H]4[C@@H](O)C[C@@]32C)sc1C .
Out: 88%

In: Give the measured Emax of Cn1c(SCC(=O)[C@@]2(O)CC[C@@]3(C)[C@@H]4CCC5=CC(=O)CC[C@]5(C)[C@H]4[C@@H](O)C[C@@]32C)nc2ccccc21 .
Out: 8%

In: Give the measured Emax of C[C@]12Cc3cnn(-c4ccccc4)c3C=C1CC[C@@H]1[C@@H]2[C@@H](O)C[C@@]2(C)[C@H]1CC[C@]2(O)C(=O)CSc1ccc2ccccc2n1 .
Out: 69%

In: Give the measured Emax of C[C@]12Cc3cnn(-c4ccccc4)c3C=C1CC[C@@H]1[C@@H]2[C@@H](O)C[C@@]2(C)[C@H]1CC[C@]2(O)C(=O)CSc1nc2ncccc2o1 .
Out: 83%

###

# TARGET UNDER TEST: Glucocorticoid receptor (Rattus norvegicus)
# Sequence (P06536 whole entry): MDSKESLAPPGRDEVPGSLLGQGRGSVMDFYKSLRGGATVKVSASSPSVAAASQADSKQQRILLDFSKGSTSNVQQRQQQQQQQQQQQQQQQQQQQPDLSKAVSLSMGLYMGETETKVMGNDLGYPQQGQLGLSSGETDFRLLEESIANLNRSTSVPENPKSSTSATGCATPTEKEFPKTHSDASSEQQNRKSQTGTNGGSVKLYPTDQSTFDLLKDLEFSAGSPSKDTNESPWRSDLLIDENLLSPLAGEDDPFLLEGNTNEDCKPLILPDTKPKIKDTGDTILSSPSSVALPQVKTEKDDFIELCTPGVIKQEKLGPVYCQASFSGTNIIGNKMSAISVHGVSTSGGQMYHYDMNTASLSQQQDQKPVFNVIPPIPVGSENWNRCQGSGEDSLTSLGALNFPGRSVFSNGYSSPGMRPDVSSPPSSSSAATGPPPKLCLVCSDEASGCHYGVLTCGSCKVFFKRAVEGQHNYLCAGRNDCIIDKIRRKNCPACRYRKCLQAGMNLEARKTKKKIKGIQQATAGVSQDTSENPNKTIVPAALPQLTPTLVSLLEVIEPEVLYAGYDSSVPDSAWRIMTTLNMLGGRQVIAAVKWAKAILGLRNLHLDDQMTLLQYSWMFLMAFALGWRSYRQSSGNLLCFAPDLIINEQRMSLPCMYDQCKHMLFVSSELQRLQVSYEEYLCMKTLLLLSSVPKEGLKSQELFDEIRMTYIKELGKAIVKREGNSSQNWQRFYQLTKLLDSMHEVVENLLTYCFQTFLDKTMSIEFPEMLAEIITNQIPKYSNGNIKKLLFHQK
# ASSAY SUMMARY: Transactivation activity at glucocorticoid receptor in rat H4II-E cells assessed as induction of tyrosine aminotransferase
Label fulfilled when IC50 is strictly below 80 nM; at or above that, label not fulfilled.

>>> label_value("Cn1c(SCC(=O)[C@@]2(O)CC[C@H]3[C@@H]4CCC5=Cc6c(cnn6C6CCCCC6)C[C@]5(C)[C@H]4[C@@H](O)C[C@@]32C)nc2ccccc21")
"not fulfilled"

In: I'd appreciate it if you could check whether C[C@]12Cc3cnn(-c4ccc(F)cc4)c3C=C1CC[C@@H]1[C@@H]2[C@@H](O)C[C@@]2(C)[C@H]1CC[C@]2(O)C(=O)COc1nc2ccccc2s1 has IC50 smaller than 80 nM.
Out: not fulfilled

In: I'd appreciate it if you could check whether C=CCn1c(SCC(=O)[C@@]2(O)CC[C@H]3[C@@H]4CCC5=Cc6c(cnn6-c6ccccc6)C[C@]5(C)[C@H]4[C@@H](O)C[C@@]32C)nc2ccccc21 has IC50 smaller than 80 nM.
Out: not fulfilled

In: I'd appreciate it if you could check whether C[C@]12Cc3cnn(-c4ccc(F)cc4)c3C=C1CC[C@@H]1[C@@H]2[C@@H](O)C[C@@]2(C)[C@H]1CC[C@]2(O)C(=O)CSc1nc2ccccc2c(=O)[nH]1 has IC50 smaller than 80 nM.
Out: not fulfilled

In: I'd appreciate it if you could check whether C[C@]12Cc3cnn(C4CCCCC4)c3C=C1CC[C@@H]1[C@@H]2[C@@H](O)C[C@@]2(C)[C@H]1CC[C@]2(O)C(=O)CSc1nc2ccccc2s1 has IC50 smaller than 80 nM.
Out: fulfilled

In: I'd appreciate it if you could check whether C[C@]12Cc3cnn(-c4ccc(F)cc4)c3C=C1CC[C@@H]1[C@@H]2[C@@H](O)C[C@@]2(C)[C@H]1CC[C@]2(O)C(=O)COc1ccc2ccccc2c1 has IC50 smaller than 80 nM.
Out: fulfilled

In: I'd appreciate it if you could check whether C[C@]12Cc3cnn(-c4ccc(F)cc4)c3C=C1CC[C@@H]1[C@@H]2[C@@H](O)C[C@@]2(C)[C@H]1CC[C@]2(O)C(=O)CSc1nc2ncccc2o1 has IC50 smaller than 80 nM.
Out: fulfilled

In: I'd appreciate it if you could check whether C[C@]12Cc3cnn(-c4ccccc4)c3C=C1CC[C@@H]1[C@@H]2[C@@H](O)C[C@@]2(C)[C@H]1CC[C@]2(O)C(=O)CSc1nc2ccccc2s1 has IC50 smaller than 80 nM.
Out: fulfilled
